The reported numbers originate from patent US9266964.

- Tested on: T1, mouse plasma kallikrein (mouse, UniProt P26262 20-638, limits assumed)
- T1 construct: also called mouse pKal
- T1 sequence (P26262 20-638 limits assumed): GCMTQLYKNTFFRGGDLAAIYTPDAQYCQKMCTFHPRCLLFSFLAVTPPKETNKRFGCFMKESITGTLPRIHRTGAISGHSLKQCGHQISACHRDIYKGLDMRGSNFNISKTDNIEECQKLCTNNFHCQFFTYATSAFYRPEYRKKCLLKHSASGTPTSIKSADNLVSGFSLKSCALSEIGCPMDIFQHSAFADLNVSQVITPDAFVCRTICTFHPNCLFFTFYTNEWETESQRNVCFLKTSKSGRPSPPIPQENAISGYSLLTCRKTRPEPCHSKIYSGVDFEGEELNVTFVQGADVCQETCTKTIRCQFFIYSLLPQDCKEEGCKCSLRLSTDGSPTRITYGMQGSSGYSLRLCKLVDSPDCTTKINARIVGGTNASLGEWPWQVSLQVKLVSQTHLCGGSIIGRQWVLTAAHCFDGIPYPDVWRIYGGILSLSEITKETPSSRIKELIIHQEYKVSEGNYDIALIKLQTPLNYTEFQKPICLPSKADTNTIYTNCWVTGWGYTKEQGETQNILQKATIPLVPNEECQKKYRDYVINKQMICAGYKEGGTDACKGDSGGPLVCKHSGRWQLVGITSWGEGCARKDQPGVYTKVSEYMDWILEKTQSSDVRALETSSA
- Assay explanation: apparent Ki (Ki,app), inhibition of mouse pKal enzyme activity
Hi there, I'd appreciate the recorded pKi for every entry that follows.
By convention, pKi is the negative base-10 log of a molar concentration.

Look at this binder and give its reported pKi. X81-B01 (antibody, V domains shown, also called X81-B01 (IgG); 559A-X81-B01) VH: EVQLLESGGGLVQPGGSLRLSCAASGFTFSHYLMTWVRQAPGKGLEWVSYISPSGGHTIYADSVKGRFTISRDNSKNTLYLQMNSLRAEDTAVYYCARVARGIAARSRTSYFDYWGQGTLVTVSS VL: EIVLTQSPGTLSLSPGERATLSCRTSQFVNSNYLAWYQQKPGQAPRLLIYGASSRATGIPDRFSGSGSGTDFTLTISRLEPEDFAVYYCQQSSRTPWTFGQGTKVEIK
10.96

Similarly, M160-G12 (antibody, V domains shown, also called R84-D02) VH: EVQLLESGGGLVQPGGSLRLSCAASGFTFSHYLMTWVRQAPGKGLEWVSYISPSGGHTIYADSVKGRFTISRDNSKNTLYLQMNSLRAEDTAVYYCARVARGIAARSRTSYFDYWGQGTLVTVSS VL: DIQMTQSPSFLSASVGDRVTITCRASQGISSYLAWYQQKPGKAPKLLIYAASTLQSGVPSRFSGSGSGTEFTLTISSLQPEDFATYYCQQLNSYPLTFGGGTKVEIK ?
9.70

Similarly, M35-G04 (antibody, V domains shown, also called 559A-M35-G04; 559A-M0035-G04) VH: EVQLLESGGGLVQPGGSLRLSCAASGFTFSYYHMSWVRQAPGKGLEWVSVISPSGGSTKYADSVKGRFTISRDNSKNTLYLQMNSLRAEDTAVYYCARGGSSDYAWGSYRRPYYFDYWGQGTLVTVSS VL: DIQMTQSPATLSLSPGERATLSCRASQSVSSYLAWYQQKPGQAPRLLIYDASNRATGIPARFSGSGSGTDFTLTISSLEPEDFAVYYCQQRSNWPRGFTFGPGTKVDIK ?
8.10

Similarly, M6-D09 (antibody, V domains shown, also called M06-D09; 559A-M06-D09) VH: EVQLLESGGGLVQPGGSLRLSCAASGFTFSFYYMVWVRQAPGKGLEWVSVIYPSGGITVYADSVKGRFTISRDNSKNTLYLQMNSLRAEDTAVYYCARDKWAVMPPYYYYAMDVWGQGTTVTVSS VL: DIQMTQSPSSLSASVGDRVTITCRASQSIRNYLNWYQQKPGKAPNLLIYAASTLQSGVPARFSGSGSGTDFTLTISSLQPEDFATYYCQQLSGYPHTFGQGTKLEIK ?
8.41
